# Tgt: HLA-DRB1*0401 (Homo sapiens, UniProt P01903+P01911, A100K/A169T/F76Y/I96L/K127E/L162R/M171V/N62H/P40V/Q125Y/R42H/S133A/S149N/S66Y/V115G/V209L/W38E)
# Assay protocol: solid-state competitive-binding assay, purified HLA-DR4
Where no end group is shown, it is not given here.
Observable: pIC50
Bear in mind: pIC50 is minus log10 of a mol/L concentration; give just that figure.

Looking up ALHIYMDGTMSQVQGSA [tyrosinase365-381D] , I found its pIC50 recorded as 7.77

====

# Tgt: HLA-DRB1*0401 (Homo sapiens, UniProt P01903+P01911, A100K/A169T/F76Y/I96L/K127E/L162R/M171V/N62H/P40V/Q125Y/R42H/S133A/S149N/S66Y/V115G/V209L/W38E)
# Assay protocol: solid-state competitive-binding assay, purified HLA-DR4
# Test conditions: read-out: Binding affinity (IC50) DRB1*0401
Where no end group is shown, it is not given here.
Observable: IC50

Before answering, review these 2 worked examples.
* VSGLSIGTGRAMLGTHTMEVTVY [gp100/pmel17167-189] | > 10 µM
* IVGILLVLMAVVLASLIYRRR [gp100599-619 /pmel17606-626] | > 10 µM

Note: attention shifts to another entry.
Looking up KRCLLHLAVIGALLAVGATKV [gp100/pmel176-26] , I found its IC50 recorded as > 10 µM
